Reference for the values: paper PMC4836675

- STUDY SYSTEM: TTR (Homo sapiens)
- Construct: made in house; host or cells: E. coli BL21
- EXPERIMENT SUMMARY: Isothermal titration calorimetry (ITC)
- Format: binding
- EXPERIMENTAL PARAMETERS: read-out: Kd2, negative cooperativity, second site
PARAMETER MEASURED: Kd
Answer with the figure and its unit, nothing else.

Hello, I am looking for reported Kd with TTR (Homo sapiens) for CC(C)(c1cc(Br)c(O)c(Br)c1)c1cc(Br)c(O)c(Br)c1 . Could you help?
975 nM

###

- STUDY SYSTEM: plasma TTR (Homo sapiens, UniProt P02766)
- EXPERIMENT SUMMARY: Drug efficacy/selectivity in human plasma (urea denaturation, western blot of monomeric TTR)
- EXPERIMENTAL PARAMETERS: IC50 plasma, human plasma, 2 h incubation, 4 M urea; three independent experiments
PARAMETER MEASURED: IC50 (µM)
Express the result in µM but write the number alone.

Could you tell me which IC50 is on file for CC(C)(c1cc(Br)c(O)c(Br)c1)c1cc(Br)c(O)c(Br)c1 ?
3.3
